Reported Relative enzyme activity by item:
test system: CC acylase N-176; assay: Substrate profile of CC acylase N-176, HPLC assay; assay type: biochemical, Pseudomonas diminuta N-176; details: percentage compared to the activity for GL-7ACA; 2 mg substrate, 20 μg enzyme, pH 9, 50° C., 2 min
Express it in %; write the number only.

A selection of reference data follows.
>>> val("CC(=O)OCC1=C(C(=O)O)N2C(=O)[C@@H](NC(=O)CCC[C@@H](N)C(=O)O)[C@H]2SC1")
4
>>> val("CC(=O)OCC1=C(C(=O)O)N2C(=O)[C@@H](NC(=O)CCC(=O)O)[C@H]2SC1")
32

Prompt line: Name the reported Relative enzyme activity value associated with the compound CC(=O)N[C@H](CCCC(=O)N[C@@H]1C(=O)N2C(C(=O)O)=C(COC(C)=O)CS[C@H]12)C(=O)O
Response line: 0.1

Prompt line: // lookup Relative enzyme activity for CC(=O)OCC1=C(C(=O)O)N2C(=O)[C@@H](NC(=O)Cc3cccs3)[C@H]2SC1
Response line: 0.08

###

target: CC acylase N-176; assay: Determination of inhibition constants (Ki) for reaction products, GL-7ACA acylase activity; details: substrate GL-7ACA, 0.1M glycine buffer pH 9, 37° C., 3 min
Endpoint Label: pKi
Field pKi (float): negative decimal logarithm of the concentration in molar.

>>> val("O=C(O)CCCC(=O)O")
2.60

# ---- query molecule ----
Prompt line: Bench note: what pKi did CC(=O)OCC1=C(C(=O)O)N2C(=O)[C@@H](N)[C@H]2SC1 show?
Response line: 2.85

###

system: CC acylase N-176; assay: Substrate profile of CC acylase N-176, HPLC assay; format: biochemical, Pseudomonas diminuta N-176; settings: percentage compared to the activity for GL-7ACA; 2 mg substrate, 20 μg enzyme, pH 9, 50° C., 2 min
Endpoint Label: Relative enzyme activity (%)
Answer with a number only, understood to be in %.

The cases that follow already have their Relative enzyme activity on record.
>>> val("CC(=O)OCC1=C(C(=O)O)N2C(=O)[C@@H](NC(=O)CCCCC(=O)O)[C@H]2SC1")
19
>>> val("CC(=O)OCC1=C(C(=O)O)N2C(=O)[C@@H](NC(=O)CCC[C@@H](NC(=O)c3ccccc3)C(=O)O)[C@H]2SC1")
0.0003

Prompt line: Need Relative enzyme activity, item CC(=O)OCC1=C(C(=O)O)N2C(=O)[C@@H](NC(=O)CCCC(=O)O)[C@H]2SC1
Response line: 100

Where do these numbers come from? They come from patent US5320948A.
